Each item that follows carries a reported herbicidal rate, Chenopodium album.
# Tested on: Chenopodium album
# test-description: Test Example 3: herbicidal effect test by treatment of dry field farming soil (one day after seeding)
# Format: in vivo
# measurement-parameters: 120 g/10a active ingredient, evaluated 14 days after treatment
// units = %; emit number, no label

compound	target-or-system	reading-unit	herbicidal rate, Chenopodium album
Cc1c(Cc2cc(Cl)ccc2NS(=O)(=O)C(F)(F)F)c(=O)on1C(C)C [Compound 1-41]	Chenopodium album	%	50
CCC(=O)N(c1ccccc1Cc1c(C)n(CCSC)oc1=O)S(=O)(=O)C(F)(F)F [Compound 1-320]	Chenopodium album	%	90
Cc1c(Cc2ccccc2NS(=O)(=O)C(F)(F)F)c(=O)on1CC1(C)CC1 [Compound 1-145]	Chenopodium album	%	40
Cc1c(Cc2ccccc2N(S(=O)(=O)C(F)(F)F)S(=O)(=O)C(F)(F)F)c(=O)on1C1CCc2ccccc21 (stereo not shown) [Compound 1-1049]	Chenopodium album	%	50
Cc1c(Cc2ccccc2NS(=O)(=O)C(F)(F)F)c(=O)on1CCC(C)(C)C [Compound 1-116]	Chenopodium album	%	50
CCCCC(CC)Cn1oc(=O)c(Cc2ccccc2N(S(=O)(=O)C(F)(F)F)S(=O)(=O)C(F)(F)F)c1C (stereo not shown) [Compound 1-980]	Chenopodium album	%	40

Let us move to another entry and its herbicidal rate, Chenopodium album.
Return the recorded herbicidal rate, Chenopodium album value; entry: CCC(C)n1oc(=O)c(Cc2ccccc2N(C(=O)C2CCCCC2)S(=O)(=O)C(F)(F)F)c1C (stereo not shown) [Compound 1-432]
90
